// data source = patent US8466176B2

PROTOCOL_TEXT: logP(HCOOH) reported with HPLC/MS
CONDITION_DETAILS: method [b]: LC-MS, pH 2.7 with 0.1% formic acid in water and acetonitrile (0.1% formic acid), linear gradient 10% to 95% acetonitrile
VALUE_KIND: log p

[ask] Give me measured log p, please, for this compound: Cn1nnnc1C(=NOCc1cccc(C#CCCCC#N)n1)c1ccccc1
[reply] 2.9^[b]

[ask] Name the recorded log p of the item Cn1nnnc1C(=NOCc1cccc(C#Cc2ccsc2)n1)c1ccccc1 in your answer.
[reply] 3.83^[b]

[ask] Using the record for CCCCC#Cc1nc(CON=C(c2cccc(F)c2)c2nnnn2C)cs1 , state its measured log p.
[reply] 4.51^[b]

[ask] Look up and report measured log p for this entry: COc1ccc(CON=C(c2ccccc2)c2nnnn2C)nc1C#CCCCC#N
[reply] 2.82^[b]

[ask] Please give the documented log p of Cn1nnnc1C(=NOCc1cccc(C#Cc2cccc(OC(F)(F)F)c2)n1)c1ccccc1
[reply] 4.75^[b]

###

PROTOCOL_TEXT: logP(HCOOH) reported with HPLC/MS
CONDITION_DETAILS: method [b]: LC-MS at pH 2.7, 0.1% formic acid in water and acetonitrile, linear gradient 10% to 95% acetonitrile
Recorded log p, one value per entry.

[ask] Consider the molecule Cn1nnnc1C(=NOCc1cccc(C#CC2CC2)n1)c1ccccc1 . State its measured log p.
[reply] 3.46^[b]

[ask] Retrieve log p measured for Cn1nnnc1C(=NOCc1cccc(C(=O)NC(C)(C)C)n1)c1ccccc1 and print it.
[reply] 3.37^[b]

[ask] Please look at this molecule and report its log p: COC[C@H](C)NC(=O)c1cccc(CON=C(c2ccccc2)c2nnnn2C)n1
[reply] 2.7^[b]

[ask] # return recorded log p for entry CCCCC#Cc1nc(CON=C(c2ccccc2)c2nnnn2C)c(Cl)s1
[reply] 5.22^[b]

[ask] Find the measured log p of CN(C)C(=O)c1cccc(CON=C(c2ccccc2)c2nnnn2C)n1 and report it.
[reply] 2.04^[b]

[ask] Recall and state the measured log p for Cc1nnnn1C(=NOCc1cccc(N=CNC#N)n1)c1ccccc1 .
[reply] 2.22^[b]

[ask] Return reported log p. Input molecule: Cn1nnnc1C(=NOCc1nc(C#CC2CCCCC2)ccc1F)c1ccccc1
[reply] 4.92^[b]

[ask] Provide log p value for the following molecule: Cc1nnnn1C(=NOCc1cccc(NC(=S)Nc2ccccc2)n1)c1ccccc1
[reply] 3.31^[b]

[ask] Determine its reported log p: Cn1nnnc1C(=NOCc1nc(C#CCCCc2ccccc2)sc1Cl)c1ccccc1
[reply] 5.56^[b]

[ask] Report log p for CC(C)CCC#Cc1ccc(F)c(CON=C(c2ccccc2)c2nnnn2C)n1
[reply] 3.13^[b]

###

PROTOCOL_TEXT: logP(HCOOH) reported with HPLC/MS
CONDITION_DETAILS: method [b]: LC-MS at pH 2.7, 0.1% formic acid in water and acetonitrile, linear gradient 10% to 95% acetonitrile
Quick reference: log p of the listed items.

Illustrative cases are given below, each with its answer.
> print(dat)
                                   compound  value.kind  reported
1  Cc1nnnn1C(=NOCc1cccc(NC(=S)NCCc2ccccc2)n1)c1ccccc1       log p  3.67^[b]
2  CCCCCCCCNC(=S)Nc1cccc(CON=C(c2ccccc2)n2nnnc2C)n1       log p  4.97^[b]

[ask] # return recorded log p for input Cn1nnnc1C(=NOCc1nc(C#CC2CCCCC2)sc1Cl)c1ccccc1
[reply] 5.75^[b]

[ask] Consider the compound CCCCC(=O)NCc1cccc(CON=C(c2ccccc2)c2nnnn2C)n1 . State its measured log p.
[reply] 2.56^[b]

[ask] Give me measured log p, please, for this compound: COC(=O)c1cccc(CON=C(c2ccccc2)n2nnnc2C)n1
[reply] 2.47^[b]

[ask] State its log p: CCN(C)C=Nc1cccc(CON=C(c2ccccc2)n2nnnc2C)n1
[reply] 1.43^[b]

[ask] Report measured log p; entry is Cn1nnnc1C(=NOCc1nc(C#CC2CCCC2)sc1Cl)c1ccccc1
[reply] 5.31^[b]

[ask] Answer with the recorded log p for the compound listed here: COc1ccc(CON=C(c2ccccc2)c2nnnn2C)nc1C#CCOc1ccccc1
[reply] 3.8^[b]

[ask] Annotate the compound CCSCC#Cc1ccc(F)c(CON=C(c2ccccc2)c2nnnn2C)n1 with its measured log p.
[reply] 3.85^[b]

[ask] Check the records and state log p for C=CCNC(=S)Nc1cccc(CON=C(c2ccccc2)n2nnnc2C)n1
[reply] 3.09^[b]

[ask] Identify measured log p associated with CC(=O)N(CCC1CCCCC1)c1cccc(CON=C(c2ccccc2)c2nnnn2C)n1
[reply] 4.16^[b]

[ask] Return the recorded log p value; entry: Cn1nnnc1C(=NOCc1nc(C#CCCCCl)ccc1F)c1ccccc1
[reply] 3.87^[b]

[ask] Complete the entry with log p for CCCCCN(C)C(=O)c1cccc(CON=C(c2ccccc2)c2nnnn2C)n1
[reply] 3.29^[b]

[ask] Hello, please tell me recorded log p for this one: CCCCC#Cc1nc(CON=C(c2ccccc2)c2nnnn2C)ccc1OC
[reply] 3.96^[b]

[ask] Return the recorded log p value; entry: Cn1nnnc1C(=NOCc1nc(C#CCCCC#N)sc1Cl)c1ccccc1
[reply] 3.58^[b]

###

PROTOCOL_TEXT: logP(HCOOH) reported with HPLC/MS
CONDITION_DETAILS: HPLC, logP(HCOOH), HPLC/MS
VALUE_KIND: chromatographic logP

Record excerpt, results attached:
> print(dat)
                                   molecule  reported
1  CCCC/C=C/c1nc(CON=C(c2ccccc2)c2nnnn2C)cs1      4.56
2       Cn1nnnc1C(=NOCc1cccc(CN)n1)c1ccccc1      1.23
3  Cn1nnnc1C(=NOCc1cccc(C2OCCO2)n1)c1ccccc1      2.47
4  Cn1nnnc1C(=NOCc1cccc(/C=C/C2CCCCC2)n1)c1ccccc1      5.05
5                           Cc1sc(Br)nc1CBr      2.64

[ask] # return recorded chromatographic logP for input Cc1sc(Br)nc1CON=C(c1ccccc1)c1nnnn1C
[reply] 3.37

[ask] Answer with the recorded chromatographic logP for the compound listed here: Cc1nnnn1C(=NOCc1csc(Br)n1)c1ccccc1
[reply] 3.15

###

PROTOCOL_TEXT: logP(HCOOH) reported with HPLC/MS
CONDITION_DETAILS: reversed phase HPLC column, pH 2.7, log p, method [b]: LC-MS, pH 2.7 with 0.1% formic acid in water and acetonitrile (0.1% formic acid), linear gradient 10% to 95% acetonitrile
Measured chromatographic logP, listed per entry.
// return a plain number; no unit text

Some entries whose results are on file:
> print(dat)
                                   compound  reported
1  Cc1sc(C#CC2CC2)nc1CON=C(c1ccccc1)c1nnnn1C [Example 181]      3.83
2  Cn1nnnc1C(=NOCc1csc(NCCC2CCCCC2)n1)c1ccccc1 [Example 161]      3.62

[ask] Return the recorded chromatographic logP value; entry: Cc1sc(Br)nc1CON=C(c1ccccc1)c1nnnn1C [Example 175]
[reply] 3.37

[ask] Name the recorded chromatographic logP of the item Cn1nnnc1C(=NOCc1csc(C#CCOCc2ccccc2)n1)c1ccccc1 [Example 263] in your answer.
[reply] 4.04

[ask] Give chromatographic logP for Cc1nnnn1C(=NOCc1csc(Br)n1)c1ccccc1 [Example 145]
[reply] 3.15

[ask] Return chromatographic logP (reported value) for this compound: Cc1nnnn1C(=NOCc1csc(C#CC2CC2)n1)c1ccccc1 [Example 159]
[reply] 3.65

###

PROTOCOL_TEXT: logP(HCOOH) reported with HPLC/MS
CONDITION_DETAILS: HCOOH (formic acid), logP(HCOOH), HPLC/MS
Lab note: anything with chromatographic logP at or over 3 counts as T; the rest go in F.

Answered cases to consult:
> print(dat)
                                   compound  label
1  CC(C)(C)OC(=O)N(CCC1CCCCC1)c1cccc(CBr)n1      T
2                CON(C)C(=O)c1cccc(N(C)C)c1      F
3                            Cc1sc(Br)nc1CO      F

[ask] Reported chromatographic logP at or above 3? OCc1cccc(C2OCCO2)n1
[reply] F

[ask] Has CSc1cccc(C(=NOCc2cccc(N(CCC3CCCCC3)C(=O)OC(C)(C)C)n2)c2nnnn2C)c1 a recorded chromatographic logP greater than or equal to 3?
[reply] T

[ask] Hi, just wondering whether Cn1nnnc1C(=NOCc1cccc(N(CCC2CCCCC2)C(=O)OC(C)(C)C)n1)c1ccccc1 [Example 141] shows chromatographic logP of 3 or higher.
[reply] T

[ask] Kindly determine if chromatographic logP recorded for CN(C)c1cccc(C(=NOCc2cccc(N3C(=O)c4ccccc4C3=O)n2)c2nnnn2C)c1 is above or exactly 3.
[reply] T

[ask] Test whether the compound CCCCSC(=O)Nc1cccc(CON=C(c2ccccc2)c2nnnn2C)n1 records chromatographic logP of 3 or higher.
[reply] T
